Where do the numbers come from? From paper PMC5540273.

I'd be grateful if you could share measured %Inh for these entries.
Test system: FLT3-autoinhibited
Details: concentration: 1 μM, replicates: in singlicate; n = 1;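 also: KINOMEscan kinase panel screen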
Numbers only, in %.

CN(C)CCN(C)C(=O)c1cc(-c2ccncc2)c(-c2ccc(Cl)c(O)c2)o1.Cl.Cl :: 0
Cl.Oc1ccc(-c2nc(-c3ccccc3)[nH]c2-c2ccncc2)cc1 :: 0
COc1ccc(Nc2nccc(NCCNC(=O)Nc3ccccc3F)n2)cc1 :: 0

The following molecules each have a reported value; give each one's %Inh.
1. COc1ccc2nc(-c3cccc(C)n3)nc(Nc3ccncc3)c2c1
2. C[C@@H]1CCCCN1c1cc(-c2ccc3c(N)n[nH]c3c2)nc(N)n1
3. NC(=O)c1nnc2ccccc2c1N
4. O=c1cc(N2CCOCC2)nc2n(Cc3cccc(Cl)c3Cl)ccn12
5. Fc1cccc(COc2nnc(-c3ccc4c(c3)CCO4)o2)c1
6. O=S(=O)(c1ccc(-c2ccnc3[nH]ccc23)cc1)N1CCCC1
7. Cc1nnc(-c2ccc3occ(-c4ccc(S(C)=O)cc4)c3c2)[nH]1 (centres unmarked)
8. Cn1ccc2ncnc(Oc3ccc(Nc4nc5ccccc5[nH]4)cc3)c21

[A]
[3, 0, 16, 0, 3, 8, 31, 0]

* * *

System: NLK
Settings: concentration: 1 μM, replicates: in singlicate; n = 1
Response field label takes 1 when %Inh is strictly below 20% and -1 in all other cases.

Worked examples follow.
COc1cccc(NC(=O)NC2CCN(c3ccnc(Nc4ccc(F)cc4)n3)C2)c1 (stereo not shown) :: 1
CC(C)(C)c1ccc(C(=O)Nc2cn3cc(Cl)ccc3n2)cc1 :: 1
O=C1NC(=O)C(N2CCc3ccccc32)=C1c1ccccc1Cl :: 1
NC(=O)c1nnc2ccccc2c1N :: 1
Cc1cccc(-c2nc(Nc3cccc(C(N)=O)c3)c3ccccc3n2)n1 :: 1

[Q] %Inh under 20%? Item: CC(C)(C)c1ccc(C(=O)Nc2cn3cc(-c4cccnc4)ccc3n2)cc1
[A] 1

[Q] For Clc1cc(Cl)cc(Nc2ccnc(Nc3cc(Cl)cc(Cl)c3)n2)c1 , is the recorded %Inh below the cut-off of 20%?
[A] 1

[Q] Here's an entry: Cc1ccc(NC(=O)Nc2cccc(Cl)c2)cc1-c1ccc(C(=O)Nc2ccncc2)cc1 . Is its %Inh below 20%?
[A] -1

[Q] Is it true that %Inh reported for Cl.NC(=O)c1cccc(Nc2nccc(Nc3ccc(Oc4cccc(Cl)c4)c(Cl)c3)n2)c1 is less than 20%?
[A] -1

[Q] Is %Inh strictly under 20% for the entry Cn1ccc2ncnc(Oc3ccc(Nc4nc5ccccc5[nH]4)cc3)c21 ?
[A] 1

[Q] Is it true that %Inh reported for Fc1cc(Cl)ccc1Nc1ccnc2cc(I)ccc12 is less than 20%?
[A] -1

[Q] Quick check: %Inh of COc1ccccc1CNC(=O)c1cc(C(=O)c2ccccc2C)c[nH]1 under 20%?
[A] -1

[Q] Given CC(=O)Nc1nc2cnc(Nc3cc(NC(=O)c4cccc(CCC#N)c4)ccc3C)nc2s1 , is recorded %Inh strictly lower than 20%?
[A] 1

[Q] API: query returns whether the compound falls strictly under 20% in %Inh. Query: COc1ccc(Nc2nccc(NCCNC(=O)Nc3ccccc3F)n2)cc1
[A] 1

[Q] Dear reviewer, please state whether COc1cc2ncnc(Nc3ccc4nc(-c5ccccc5)[nH]c4c3)c2cc1OC.Cl has %Inh strictly beneath 20%.
[A] -1

[Q] Determine if COc1ccc(CNC(=O)NC2CCN(c3ccnc(Nc4cc(OC)c(OC)c(OC)c4)n3)C2)cc1 (stereo not shown) shows %Inh strictly lower than 20%.
[A] 1

[Q] Is the reported %Inh for CCn1c(-c2ccccn2)nc2cnccc21 strictly below 20%?
[A] 1

[Q] Dear colleague, could you confirm whether %Inh of COc1ccccc1-c1ccc2c(NC(=O)C3CC3)n[nH]c2n1 falls below 20%? Thanks.
[A] 1

[Q] Does the reported %Inh of Cn1cncc1-c1ccc2ncnc(Nc3ccc(OCc4ccccc4)cc3)c2c1 stay below 20%?
[A] 1
